- EXPERIMENT SUMMARY: Cell Viability - LYMP1-003 - Assay at 40 hr (AID 964); note: nearly all actives have a fitted effect of over 60% in size; note: potency is the fitted concentration of half-maximal effect
- CONDITIONS USED: LYMP1-003 lymphoblastoid viability; series mostly up to 92.2 µM
Inconclusive results are not listed. Activity calls are given as the source filed them. Calls come from the whole dose curve; as a rule, active = well fitted cell-killing curve with a large enough effect; inconclusive = small, poorly fitted or top-dose-only effect; inactive = flat fitted curve, though single readings scatter.

COMPOUND: c1ccc2cc3c(cc2c1)-c1cccc2cccc-3c12
Potency: inactive
//
COMPOUND: O=[N+]([O-])C(Br)Br
Potency: inactive
//
COMPOUND: Nc1ccccc1C(=O)OCCc1ccccc1
Potency: inactive
//
COMPOUND: COP(=O)(OC)O/C(=C\Cl)c1cc(Cl)c(Cl)cc1Cl
Potency: inactive
//
COMPOUND: CN(C)c1ccc(N=O)cc1
Potency: 3.98 µM (active)
//
COMPOUND: [CH3][Hg][Cl]
Potency: 50.1 µM (active)
//
COMPOUND: O=C(O)C1C(C(=O)O)C2(Cl)C(Cl)=C(Cl)C1(Cl)C2(Cl)Cl (stereo not given)
Potency: inactive
//
COMPOUND: [Cd+2].[Cl-].[Cl-]
Potency: 15.8 µM (active)
//
COMPOUND: CC/C(=C(\c1ccccc1)c1ccc(OCCN(C)C)cc1)c1ccc(O)cc1
Potency: 50.1 µM (active)
//
COMPOUND: OC(c1ccc(Cl)cc1)(c1ccc(Cl)cc1)C(Cl)(Cl)Cl
Potency: inactive
//
COMPOUND: N#CC(Cl)Cl
Potency: inactive
//
COMPOUND: CC(C)CC(C)Nc1ccc(Nc2ccccc2)cc1 (stereo not given)
Potency: 31.6 µM (active)
//
COMPOUND: CCCCCCCCn1sccc1=O
Potency: 25.1 µM (active)
//
COMPOUND: Clc1ccc(C(c2ccc(Cl)cc2)C(Cl)Cl)cc1
Potency: 79.4 µM (active)
//
COMPOUND: C(=NC1CCCCC1)=NC1CCCCC1
Potency: inactive

* * *

- SYSTEM: Voltage-gated inwardly rectifying potassium channel KCNH2 (Homo sapiens)
- EXPERIMENT SUMMARY: qHTS Assay for Small Molecule Inhibitors of the Human hERG Channel Activity (AID 588834);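 note: lower thallium flux fluorescence means stronger hERG block; nearly all actives have a fitted effect of over 50% in size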; note: potency is the fitted concentration of half-maximal effect
- CONDITIONS USED: U2OS BacMam hERG, FluxOR thallium flux fluorescence; series mostly up to 92.2 µM
Records with an inconclusive call do not appear. The source made the active and inactive calls. Calls come from the whole dose curve; as a rule, active = well fitted inhibition curve with a large enough effect; inconclusive = small, poorly fitted or top-dose-only effect; inactive = flat fitted curve, though single readings scatter.
MEASURED METRIC: Potency

COMPOUND: N#CC(Cl)Cl
RECORDED VALUE: inactive
--
COMPOUND: CN(C)CCCCCCN(C)C
RECORDED VALUE: inactive
--
COMPOUND: O=[N+]([O-])c1cc(C(F)(F)F)cc([N+](=O)[O-])c1Cl
RECORDED VALUE: inactive
--
COMPOUND: ClC1=C(Cl)C(Cl)(Cl)C(Cl)=C1Cl
RECORDED VALUE: 22.4 µM (active)
--
COMPOUND: Oc1c(Br)c(Br)c(Br)c(Br)c1Br
RECORDED VALUE: inactive
--
COMPOUND: NCCN
RECORDED VALUE: inactive
--
COMPOUND: OC(c1ccc(Cl)cc1)(c1ccc(Cl)cc1)C(Cl)(Cl)Cl
RECORDED VALUE: 39.8 µM (active)
--
COMPOUND: CN(C)c1ccc(N=O)cc1
RECORDED VALUE: inactive
--
COMPOUND: O=C(CCl)c1ccccc1
RECORDED VALUE: inactive
--
COMPOUND: c1ccc2cc3c(cc2c1)-c1cccc2cccc-3c12
RECORDED VALUE: inactive
--
COMPOUND: ClC1=C(Cl)C2(Cl)C3C(Cl)C(Cl)CC3C1(Cl)C2(Cl)Cl (stereo not drawn)
RECORDED VALUE: 35.5 µM (active)
--
COMPOUND: O=[N+]([O-])C(Br)Br
RECORDED VALUE: 50.1 µM (active)
--
COMPOUND: COP(=O)(OC)O/C(=C\Cl)c1cc(Cl)c(Cl)cc1Cl
RECORDED VALUE: inactive
